SYSTEM NAME: MOR (Homo sapiens)
Construct: host or cells: CHO (CHO-hMOR)
Sequence (P35372 whole entry): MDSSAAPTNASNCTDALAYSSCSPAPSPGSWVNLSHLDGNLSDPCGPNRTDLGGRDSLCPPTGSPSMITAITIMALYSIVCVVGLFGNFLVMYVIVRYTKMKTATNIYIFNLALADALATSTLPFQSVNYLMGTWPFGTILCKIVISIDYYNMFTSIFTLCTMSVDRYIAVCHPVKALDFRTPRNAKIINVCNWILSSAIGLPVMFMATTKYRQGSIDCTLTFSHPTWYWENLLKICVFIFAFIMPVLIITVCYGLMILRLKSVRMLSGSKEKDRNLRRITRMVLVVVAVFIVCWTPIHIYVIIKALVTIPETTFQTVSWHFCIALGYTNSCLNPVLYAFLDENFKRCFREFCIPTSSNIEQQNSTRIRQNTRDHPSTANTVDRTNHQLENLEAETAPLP
TEST DETAILS: [35S]GTPγS binding assay, CHO-hMOR membranes
Format: biochemical
TEST CONTEXT: relative to reference full agonist DAMGO; read-out: MOR % stim.
Each entry below lists one item and its recorded Emax value.
# number only, unit % dropped from output

COMPOUND	Emax (%)
CO[C@@]12CC[C@@H](N[C@@H](Cc3ccccc3)C(=O)O)[C@@H]3Oc4c(O)ccc5c4[C@@]31CCN(C)[C@@H]2C5	99
CO[C@@]12CC[C@@H](N[C@@H](C(=O)O)C(C)C)[C@@H]3Oc4c(O)ccc5c4[C@@]31CCN(C)[C@@H]2C5 [Compound 16b]	101
CO[C@@]12CC[C@H](N[C@@H](Cc3ccccc3)C(=O)O)[C@@H]3Oc4c(O)ccc5c4[C@@]31CCN(C)[C@@H]2C5	93
CO[C@@]12CC[C@H](NCCC(=O)O)[C@@H]3Oc4c(O)ccc5c4[C@@]31CCN(C)[C@@H]2C5 [Compound 20a]	99
CO[C@@]12CC[C@@H](N[C@@H](Cc3ccc(O)cc3)C(=O)O)[C@@H]3Oc4c(O)ccc5c4[C@@]31CCN(C)[C@@H]2C5.Cl.Cl	93
CO[C@@]12CC[C@@H](N[C@@H](C)C(=O)O)[C@@H]3Oc4c(O)ccc5c4[C@@]31CCN(C)[C@@H]2C5	87

Then there is this compound:
input: Please indicate recorded Emax of CO[C@@]12CC[C@H](N[C@H](Cc3ccccc3)C(=O)O)[C@@H]3Oc4c(O)ccc5c4[C@@]31CCN(C)[C@@H]2C5 [Compound 17a] measured with MOR (Homo sapiens).
output: 96

###

SYSTEM NAME: DOR (Rattus norvegicus)
Construct: Membranes were prepared from Sprague-Dawley rat brains or guinea-pig brains according to the described procedures; tissue Labortierkunde und Laborgenetik, Medizinische Universität Wien
Sequence (P33533 whole entry): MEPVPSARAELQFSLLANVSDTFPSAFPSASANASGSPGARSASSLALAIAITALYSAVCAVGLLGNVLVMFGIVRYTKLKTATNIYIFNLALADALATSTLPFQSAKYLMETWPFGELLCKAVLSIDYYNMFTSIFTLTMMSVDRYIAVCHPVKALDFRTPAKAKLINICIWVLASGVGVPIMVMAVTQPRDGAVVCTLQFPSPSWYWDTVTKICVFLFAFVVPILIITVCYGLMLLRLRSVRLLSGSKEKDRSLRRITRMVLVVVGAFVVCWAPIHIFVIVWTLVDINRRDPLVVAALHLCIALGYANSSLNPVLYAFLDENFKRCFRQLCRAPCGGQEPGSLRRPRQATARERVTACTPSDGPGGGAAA
TEST DETAILS: competition radioligand binding, rat brain membranes, [3H][Ile5,6]deltorphin II
TEST CONTEXT: rat brain membranes; read-out: opioid receptor binding Ki DOR
# key: entry, value: pKi
Keep it numeric: pKi is minus log10 of the concentration in mol/L.

Examples with answers:
COMPOUND	READOUT VALUE
CO[C@@]12CC[C@@H](NCCCC(=O)O)[C@@H]3Oc4c(O)ccc5c4[C@@]31CCN(C)[C@@H]2C5 [Compound 21b]	8.18
CO[C@@]12CC[C@@H](N[C@@H](C(=O)O)C(C)C)[C@@H]3Oc4c(O)ccc5c4[C@@]31CCN(C)[C@@H]2C5 [Compound 16b]	8.77
CC[C@H](N[C@H]1CC[C@@]2(OC)[C@H]3Cc4ccc(O)c5c4[C@@]2(CCN3C)[C@H]1O5)C(=O)O [Compound 19a]	7.43
CO[C@@]12CC[C@H](N[C@@H](Cc3c[nH]c4ccccc34)C(=O)O)[C@@H]3Oc4c(O)ccc5c4[C@@]31CCN(C)[C@@H]2C5 [Compound 10a]	8.99
CO[C@@]12CCC(N[C@@H](CCC(=O)O)C(=O)O)[C@@H]3Oc4c(O)ccc5c4[C@@]31CCN(C)[C@@H]2C5 (stereo in doubt) [Compound 14a]	8.04
CO[C@@]12CC[C@H](N[C@H](C(=O)O)C(C)C)[C@@H]3Oc4c(O)ccc5c4[C@@]31CCN(C)[C@@H]2C5	8.41
CC[C@H](N[C@@H]1CC[C@@]2(OC)[C@H]3Cc4ccc(O)c5c4[C@@]2(CCN3C)[C@H]1O5)C(=O)O [Compound 19b]	8.89
CO[C@@]12CC[C@H](NCCCC(=O)O)[C@@H]3Oc4c(O)ccc5c4[C@@]31CCN(C)[C@@H]2C5 [Compound 21a]	7.90
CO[C@@]12CC[C@H](N[C@H](Cc3ccccc3)C(=O)O)[C@@H]3Oc4c(O)ccc5c4[C@@]31CCN(C)[C@@H]2C5 [Compound 17a]	8.43
CO[C@@]12CC[C@@H](NCCC(=O)O)[C@@H]3Oc4c(O)ccc5c4[C@@]31CCN(C)[C@@H]2C5 [Compound 20b]	7.86

input: Look up and report measured pKi for this entry: CO[C@@]12CC[C@@H](N[C@@H](CCCCN)C(=O)O)[C@@H]3Oc4c(O)ccc5c4[C@@]31CCN(C)[C@@H]2C5
output: 8.48

input: Identify measured pKi associated with CO[C@@]12CC[C@@H](N[C@H](C(=O)O)C(C)C)[C@@H]3Oc4c(O)ccc5c4[C@@]31CCN(C)[C@@H]2C5
output: 8.45

input: Write down pKi measured for item CO[C@@]12CC[C@@H](N[C@H](C(=O)N[C@@H](Cc3ccc(O)cc3)C(=O)O)C(C)C)[C@@H]3Oc4c(O)ccc5c4[C@@]31CCN(C)[C@@H]2C5 [Compound 22b]
output: 8.86

input: Given CO[C@@]12CC[C@@H](NC(C)C(=O)O)[C@@H]3Oc4c(O)ccc5c4[C@@]31CCN(C)[C@@H]2C5 (stereo in doubt) [Compound 15b] , respond with its pKi.
output: 7.95

input: Read off the recorded pKi for CO[C@@]12CC[C@H](N[C@@H](C(=O)O)C(C)C)[C@@H]3Oc4c(O)ccc5c4[C@@]31CCN(C)[C@@H]2C5 [Compound 16a]
output: 8.71

input: For the compound CO[C@@]12CC[C@@H](N[C@@H](CCC(=O)O)C(=O)O)[C@@H]3Oc4c(O)ccc5c4[C@@]31CCN(C)[C@@H]2C5.Cl.Cl [Compound 14b] , give its reported pKi.
output: 8.12

input: Output pKi of CO[C@@]12CC[C@@H](N[C@H](Cc3ccccc3)C(=O)O)[C@@H]3Oc4c(O)ccc5c4[C@@]31CCN(C)[C@@H]2C5 [Compound 17b]
output: 8.92

input: Hello, please tell me recorded pKi for this one: CO[C@@]12CC[C@H](NC(C)C(=O)O)[C@@H]3Oc4c(O)ccc5c4[C@@]31CCN(C)[C@@H]2C5 (stereo in doubt) [Compound 15a]
output: 7.98

Numbers sourced from paper PMC6348443.
